Every entry's value here was drawn from patent US20030114402A1.

Test System: DCMTase (Mus musculus)
Construct: DCMTase was purified from mouse erythroleukemia cells as previously described; endogenous in cells; host or cells: mouse erythroleukemia (MEL) cells; enzyme purified from them
Method Description: Product inhibition studies, steady-state
Assay type: biochemical
Conditions: varied poly(dI.dC:dI.dC), low AdoMet concentrations; read-out: Kii, noncompetitive model
Observable: Ki (nM)
Please respond with the number in nM and leave the unit unwritten.

Nc1ncnc2c1ncn2[C@@H]1O[C@H](CSCC[C@H](N)C(=O)O)[C@@H](O)[C@H]1O [AdoHcy, S-adenosyl homocysteine] has a reported Ki of 2500

====

Test System: DCMTase (Mus musculus, UniProt P13864)
Construct: DCMTase was purified from mouse erythroleukemia cells as previously described; endogenous in cells; host or cells: mouse erythroleukemia (MEL) cells; enzyme purified from them
Sequence (P13864 whole entry): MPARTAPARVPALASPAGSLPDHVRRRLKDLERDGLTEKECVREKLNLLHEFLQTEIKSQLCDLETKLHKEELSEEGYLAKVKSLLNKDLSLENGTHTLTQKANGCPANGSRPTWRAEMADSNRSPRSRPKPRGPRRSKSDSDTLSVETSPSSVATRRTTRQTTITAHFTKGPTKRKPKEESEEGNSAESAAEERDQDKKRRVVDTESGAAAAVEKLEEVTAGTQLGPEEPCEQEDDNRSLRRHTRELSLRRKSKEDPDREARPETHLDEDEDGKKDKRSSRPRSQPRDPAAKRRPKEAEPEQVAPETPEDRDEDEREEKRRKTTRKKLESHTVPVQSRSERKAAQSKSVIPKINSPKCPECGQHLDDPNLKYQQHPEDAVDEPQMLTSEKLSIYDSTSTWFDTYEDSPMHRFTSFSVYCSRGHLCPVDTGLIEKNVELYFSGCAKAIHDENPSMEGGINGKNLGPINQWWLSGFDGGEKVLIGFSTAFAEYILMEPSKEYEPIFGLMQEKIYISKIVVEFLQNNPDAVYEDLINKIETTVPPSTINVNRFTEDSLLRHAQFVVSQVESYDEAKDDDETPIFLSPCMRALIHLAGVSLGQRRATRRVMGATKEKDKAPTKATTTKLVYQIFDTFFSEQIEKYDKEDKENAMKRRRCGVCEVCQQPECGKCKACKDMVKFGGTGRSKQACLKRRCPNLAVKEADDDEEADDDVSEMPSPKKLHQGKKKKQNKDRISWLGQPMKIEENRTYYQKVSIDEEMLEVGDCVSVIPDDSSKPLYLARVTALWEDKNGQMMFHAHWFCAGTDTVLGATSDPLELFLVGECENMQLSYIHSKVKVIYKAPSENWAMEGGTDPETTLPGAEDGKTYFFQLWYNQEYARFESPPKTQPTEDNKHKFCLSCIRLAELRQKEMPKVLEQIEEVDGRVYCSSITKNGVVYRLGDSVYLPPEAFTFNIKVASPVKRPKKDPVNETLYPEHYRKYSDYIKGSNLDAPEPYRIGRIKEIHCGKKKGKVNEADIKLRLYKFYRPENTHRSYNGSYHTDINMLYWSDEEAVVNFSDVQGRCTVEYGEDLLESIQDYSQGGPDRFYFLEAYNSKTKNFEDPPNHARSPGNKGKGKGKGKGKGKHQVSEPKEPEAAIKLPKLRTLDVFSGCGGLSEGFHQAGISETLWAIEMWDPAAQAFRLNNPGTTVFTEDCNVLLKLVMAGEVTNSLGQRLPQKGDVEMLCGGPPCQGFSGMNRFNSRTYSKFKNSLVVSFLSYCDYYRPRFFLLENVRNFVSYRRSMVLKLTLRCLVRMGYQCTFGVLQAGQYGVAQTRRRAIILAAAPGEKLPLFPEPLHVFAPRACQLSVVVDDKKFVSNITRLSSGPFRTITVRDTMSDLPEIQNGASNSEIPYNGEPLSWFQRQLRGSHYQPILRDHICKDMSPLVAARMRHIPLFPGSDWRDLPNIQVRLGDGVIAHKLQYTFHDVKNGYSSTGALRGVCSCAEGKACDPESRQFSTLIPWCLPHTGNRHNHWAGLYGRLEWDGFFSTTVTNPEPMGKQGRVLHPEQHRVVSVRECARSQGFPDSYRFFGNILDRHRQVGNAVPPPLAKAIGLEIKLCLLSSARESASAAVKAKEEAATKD
Method Description: Dead-end inhibition of poly(dI.dC:dI.dC) methylation by single-stranded DNA
Assay type: biochemical
Conditions: AdoMet varied, constant 50 pM poly(dI.dC:dI.dC), competitive fit; read-out: Inhibition Constant, slope derived (Kis), equation 4
[5mC] = 5-methylcytosine
Observable: Ki (nM)
Please respond with the number in nM and leave the unit unwritten.

5′-CTGGATCCTTGCCC^mCGCCCCTTGAATTCCC-3′ (DNA CTGGATCCTTGCCCCGCCCCTTGAATTCCC; DNA, [5mC] at 15, backbone not given here) [GC-box b^MET] has a reported Ki of 25
